The reported measurements were obtained from PubChem BioAssay AID1159580.

Measured normalized growth of individual entries
methodDescription: chemical genetic growth profiling, strain panel (AID 1159580);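 further: tested at 20 µM; growth read once vehicle control cultures reached saturation at 30 °C; 1 = growth at the plate median or of vehicle wells; lower values mean less growth of the strain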
runConditions: S. cerevisiae deletion strains, growth OD, locus YJL187C, strain SWE1, stronger effect = lower value
Among all 5,500 compounds or so, about 2,000 (36%) were called active. About 18% were inconclusive and are not listed. This is one part of the list.
Please respond with just the number, no unit label.

Examples with their reported normalized growth follow.
molecule=C=C(C)[C@H]1COc2cc3oc(=O)ccc3cc2O1 recordedresult=0.886
molecule=COc1cccc2c(C)cc(=O)[nH]c12 recordedresult=0.989

Query: Assign normalized growth to the following record: C[C@]12C=CC(=O)C=C1CCC1C2[C@@H](O)C[C@@]2(C)C1CC[C@]2(O)C(=O)COP(=O)(O)O (stereo not given in full)
Response: 1.01

Query: Please supply the value of reported normalized growth for the item `COc1ccc(-c2cc(=O)c3c(O)cc(O[C@H]4O[C@H](CO[C@@H]5O[C@@H](C)[C@H](O)[C@@H](O)[C@H]5O)[C@@H](O)[C@H](O)[C@H]4O)cc3o2)cc1`
Response: 1.01

Query: Tell me measured normalized growth for Cc1ccccc1OCC(O)CO (stereo not given) please.
Response: 0.979

Query: Provide normalized growth value for the following molecule: `Cc1[nH]ccc2c1[nH]c1cc(=O)ccc12`
Response: 0.996

Query: Report normalized growth for `O=C(O)C1=C[C@@H](O)[C@@H](O)[C@H](O)C1`
Response: 0.976

Query: Identify the reported normalized growth for the following entry. CC(=O)Oc1ccc2c(c1C(C)C)CCC1C(C)(C)CCC[C@]21C (stereo not given in full)
Response: 1.01

Query: Specify measured normalized growth for `COc1cc(OC)c2c(=O)c(OC)c(-c3ccc(OC)c(OC)c3)oc2c1` .
Response: 1.01

Query: Respond only with normalized growth recorded for `CNC(=O)Oc1cccc2c1OC(C)(C)O2`
Response: 1.01
